Values compiled from patent US8987267B2.

biological target: CDK6/cyclinD1 (Homo sapiens, UniProt Q00534); assay: Kinase inhibition panel; conditions: 10 μM ATP
Sequence (Q00534 whole entry, species assumed): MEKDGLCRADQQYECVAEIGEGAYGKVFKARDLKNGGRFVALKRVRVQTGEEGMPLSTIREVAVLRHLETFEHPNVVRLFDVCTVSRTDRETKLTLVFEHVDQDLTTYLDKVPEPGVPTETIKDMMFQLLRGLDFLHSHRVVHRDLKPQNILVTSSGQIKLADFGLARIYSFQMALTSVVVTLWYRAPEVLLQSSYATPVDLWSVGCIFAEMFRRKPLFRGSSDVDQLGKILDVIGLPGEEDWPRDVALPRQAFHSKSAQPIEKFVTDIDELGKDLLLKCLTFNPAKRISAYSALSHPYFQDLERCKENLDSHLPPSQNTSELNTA
Sequence (P24385 whole entry partner, species assumed): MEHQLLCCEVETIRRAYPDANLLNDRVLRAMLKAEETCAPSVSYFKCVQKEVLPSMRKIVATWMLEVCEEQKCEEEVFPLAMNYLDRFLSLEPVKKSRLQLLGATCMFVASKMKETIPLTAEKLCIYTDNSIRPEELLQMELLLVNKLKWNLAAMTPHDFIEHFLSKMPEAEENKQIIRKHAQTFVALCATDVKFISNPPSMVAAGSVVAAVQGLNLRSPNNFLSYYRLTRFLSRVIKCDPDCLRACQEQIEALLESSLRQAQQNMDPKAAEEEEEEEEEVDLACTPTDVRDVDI
MEASURED_PROPERTY: pIC50
Give bare numbers, as −log10 of the molar value.

Request: Provide pIC50, system CDK6/cyclinD1 (Homo sapiens, UniProt Q00534), entry `CN1CCN(c2ccc(Nc3ncc4cc(C#N)c(=O)n(C5CCCC5)c4n3)cc2)CC1`
Result: 7.74

###

target: RIPK2 (Homo sapiens, UniProt O43353)
Sequence (O43353 whole entry, species assumed): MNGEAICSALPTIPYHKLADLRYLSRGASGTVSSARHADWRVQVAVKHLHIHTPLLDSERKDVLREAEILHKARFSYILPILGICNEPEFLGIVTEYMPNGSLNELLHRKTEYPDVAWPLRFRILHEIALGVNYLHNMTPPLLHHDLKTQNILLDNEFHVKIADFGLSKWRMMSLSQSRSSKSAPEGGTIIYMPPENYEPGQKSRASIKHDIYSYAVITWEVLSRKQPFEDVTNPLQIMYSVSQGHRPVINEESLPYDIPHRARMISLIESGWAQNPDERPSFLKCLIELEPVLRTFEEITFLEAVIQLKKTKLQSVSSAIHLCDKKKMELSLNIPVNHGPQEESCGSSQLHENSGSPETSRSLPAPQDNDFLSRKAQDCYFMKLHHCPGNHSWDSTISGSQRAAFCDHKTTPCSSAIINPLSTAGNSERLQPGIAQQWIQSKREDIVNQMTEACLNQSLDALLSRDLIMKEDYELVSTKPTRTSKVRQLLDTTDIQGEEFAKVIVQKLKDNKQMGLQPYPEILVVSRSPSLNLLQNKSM
MEASURED_PROPERTY: pIC50
Numbers only, as −log10 of the molar value.

Request: Let me know recorded pIC50 for `CN1CCN(c2ccc(Nc3ncc4cc(C#N)c(=O)n(C5CCCC5)c4n3)cc2)CC1` , thanks.
Result: 7.39
